tested on: SGC-7901; test: Cytotoxicity against human SGC7901 cells after 48 hrs by MTT assay; format: functional, cell-based; details: SGC-7901, 48 h
measure-name: IC50 (µM)
Provide only the numeric value, understood in µM.

INSERT INTO measurements (input_smiles, recorded_number) VALUES
  ('CCOC(=O)[C@]1(C)CCC[C@@]2(C)[C@@H]3CC[C@@]4(C)C[C@]3(CC[C@@H]21)c1cn(C(=S)Nc2ccccc2C)nc14', 38.1),
  ('CCOC(=O)[C@]1(C)CCC[C@@]2(C)[C@@H]3CC[C@@]4(C)C[C@]3(CC[C@@H]21)c1cn(C(=S)Nc2ccccc2F)nc14', 20.7),
  ('CCOC(=O)[C@]1(C)CCC[C@@]2(C)[C@@H]3CC[C@@]4(C)C[C@]3(CC[C@@H]21)c1cn(C(=S)Nc2cccc(Br)c2)nc14', 19.6),
  ('CCOC(=O)[C@]1(C)CCC[C@@]2(C)[C@@H]3CC[C@@]4(C)C[C@]3(CC[C@@H]21)c1cn(C(=S)Nc2ccc(Cl)cc2)nc14', 21.7);

Field IC50 (entry CCOC(=O)[C@]1(C)CCC[C@@]2(C)[C@@H]3CC[C@@]4(C)C[C@]3(CC[C@@H]21)[C@@H]1CON(C(=S)Nc2ccccc2)[C@@H]14 ) reads 27.6

According to the records, this compound CCOC(=O)[C@]1(C)CCC[C@@]2(C)[C@@H]3CC[C@@]4(C)C[C@]3(CC[C@@H]21)[C@@H]1CON(C(=S)Nc2cccc(Br)c2)[C@@H]14 displays IC50 of 36.4

Lookup result for CCOC(=O)[C@]1(C)CCC[C@@]2(C)[C@@H]3CC[C@@]4(C)C[C@]3(CC[C@@H]21)[C@@H]1CON(C(=S)Nc2ccccc2Cl)[C@@H]14 ; measured IC50: 43.6

The value of IC50 measured for the compound CCOC(=O)[C@]1(C)CCC[C@@]2(C)[C@@H]3CC[C@@]4(C)C[C@]3(CC[C@@H]21)[C@@H]1CON(C(=S)Nc2ccc([N+](=O)[O-])cc2)[C@@H]14 turned out to be 49.8
